# assayed.system: CaV1.4 M1004A (Homo sapiens, UniProt O60840, M1004A)
# test.name: Whole-cell patch-clamp of ICa in HEK293T cells, CaV1.4 M1004A mutant
Counter-ions that a name gives are not always drawn.
reported.metric: IC50 (µM)
A number alone suffices; assume µM.

Per the record, CC(C)(C)CCN1C[C@@H]2C(CNC(=O)c3cc(Cl)cc(Cl)c3)[C@@H]2C1 (stereo partly shown) [ML218, ML218 hydrochloride] has IC50 of 310

====

# assayed.system: CaV1.4 M1426A (Homo sapiens, UniProt O60840, M1426A)
# test.name: Whole-cell patch-clamp of ICa in HEK293T cells, CaV1.4 M1426A mutant
Structures can show the parent of a compound that is named as a salt.
reported.metric: IC50 (µM)
A number alone suffices; assume µM.

Per the record, CC(C)(C)CCN1C[C@@H]2C(CNC(=O)c3cc(Cl)cc(Cl)c3)[C@@H]2C1 (stereo partly shown) [ML218, ML218 hydrochloride] has IC50 of 15
